Target: BRAF^V600E protein (Homo sapiens, UniProt P15056, V600E)
Sequence (P15056 whole entry V600E): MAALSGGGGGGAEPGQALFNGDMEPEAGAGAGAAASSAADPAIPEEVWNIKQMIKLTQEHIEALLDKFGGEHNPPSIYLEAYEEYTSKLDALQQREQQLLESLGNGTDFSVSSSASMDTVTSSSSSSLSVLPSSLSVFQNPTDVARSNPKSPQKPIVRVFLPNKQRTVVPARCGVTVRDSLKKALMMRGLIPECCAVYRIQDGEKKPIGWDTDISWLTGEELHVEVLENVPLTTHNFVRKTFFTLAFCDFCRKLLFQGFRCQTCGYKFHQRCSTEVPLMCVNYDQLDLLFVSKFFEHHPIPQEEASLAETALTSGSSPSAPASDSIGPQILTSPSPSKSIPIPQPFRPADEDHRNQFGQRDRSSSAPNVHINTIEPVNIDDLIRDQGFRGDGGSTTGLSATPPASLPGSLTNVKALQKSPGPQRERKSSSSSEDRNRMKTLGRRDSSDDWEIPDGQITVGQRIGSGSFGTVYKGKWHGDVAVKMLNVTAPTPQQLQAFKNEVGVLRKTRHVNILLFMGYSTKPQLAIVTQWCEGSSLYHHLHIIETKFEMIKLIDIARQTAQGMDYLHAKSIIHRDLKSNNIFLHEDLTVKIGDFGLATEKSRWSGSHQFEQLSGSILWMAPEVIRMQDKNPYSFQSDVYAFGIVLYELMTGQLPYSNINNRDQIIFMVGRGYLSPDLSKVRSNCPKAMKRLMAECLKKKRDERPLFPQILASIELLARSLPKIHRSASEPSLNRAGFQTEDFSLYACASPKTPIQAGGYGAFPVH
Experiment: HiBiT cellular BRAF V600E degradation assay
Format: cell-based
Details: A375.10 cells, 24 h incubation; Emax = amount of residual protein remaining in the cell after compound treatment; read-out: HiBit 24 h Emax
Source text: DMEM no-phenol red medium supplemented with L-glutamine was purchased from (Corning). Fetal bovine serum (FBS) was purchased from Gibco (Grand Island, NY, USA). Nano-Glo® HiBiT Lytic Assay Buffer & Reagents were purchased from Promega (Madison, WI, USA). […] Prior to the assay, the A375.10 cell line is maintained in DMEM no-phenol red medium supplemented with 10% fetal bovine serum (FBS). […] Finally, HiBiT luminescence signal was acquired on EnVision™ Multilabel Reader (PerkinElmer, Santa Clara, CA, USA). […]
The threshold is 10%. Values of Emax beneath it are tagged satisfied; values meeting or exceeding it are tagged not satisfied.

>>> cat("CCN(C)S(=O)(=O)Nc1ccc(F)c(C(=O)c2c[nH]c3ncc(-c4cnc(N5CCN(C(=O)CN6CCC(c7c(F)cc(OC8CCC(=O)NC8=O)cc7F)CC6)CC5)nc4)cc23)c1F (centres unmarked)")
"satisfied"
>>> cat("CCN(C)S(=O)(=O)Nc1ccc(F)c(C(=O)c2c[nH]c3ncc(-c4cnc(N5CCC(NC(=O)CN6CCC(c7ccc(OC8CCC(=O)NC8=O)cc7)CC6)CC5)nc4)cc23)c1F (centres unmarked)")
"not satisfied"
>>> cat("CCN(C)S(=O)(=O)Nc1ccc(F)c(C(=O)c2c[nH]c3ncc(-c4cnc(N5CCC(n6cc7c(n6)CCN(c6ccc(NC8CCC(=O)NC8=O)cc6)C7)CC5)nc4)cc23)c1F (centres unmarked)")
"not satisfied"
>>> cat("CCN(C)S(=O)(=O)Nc1cccc(C(=O)c2c[nH]c3ncc(-c4ccc(N5CCN(C(=O)CC6(O)CCN(c7ccc(NC8CCC(=O)NC8=O)cc7)CC6)CC5)nc4)cc23)c1F (centres unmarked)")
"not satisfied"
>>> cat("O=C1CCC(Nc2ccc(N3CCC(O)(CC(=O)N4CCN(c5ccc(-c6cnc7[nH]cc(C(=O)c8c(F)ccc(NS(=O)(=O)N9CC[C@@H](F)C9)c8F)c7c6)cc5)CC4)CC3)c(F)c2)C(=O)N1 (some centres unmarked)")
"satisfied"

###

molecular target: BRAF^V600E protein (Homo sapiens, UniProt P15056, V600E); test: HiBiT cellular BRAF V600E degradation assay; format: cell-based; conditions: A375.10 cells (HiBiT tag knocked in at N-terminal of BRAF V600E), 24 h incubation; concentration at which 50% of total cellular BRAF V600E is degraded
# strict inequality: DC50 < 7 nM yields true (1), everything else yields false (0)

>>> cat("CCN(C)S(=O)(=O)Nc1cccc(C(=O)c2c[nH]c3ncc(-c4ccc(N5CCN(C(=O)CN6CCC(c7ccc(OC8CCC(=O)NC8=O)cc7)CC6)CC5)nc4)cc23)c1F (centres unmarked) [Example 108]")
"true (1)"
>>> cat("O=C1CCC(c2ccc(C3CCN(CC(=O)N4CCN(c5ccc(-c6cnc7[nH]cc(C(=O)c8c(F)ccc(NS(=O)(=O)N9CCCC9)c8F)c7c6)cc5)CC4)CC3)cc2)C(=O)N1 (centres unmarked) [Example A85]")
"false (0)"
>>> cat("CCN(C)S(=O)(=O)Nc1cccc(C(=O)c2c[nH]c3ncc(-c4ccc(N5CCN(C(=O)CN6CCC(c7ccc(NC8CCC(=O)NC8=O)cc7)CC6)CC5)nc4)cc23)c1F (centres unmarked) [Example 107]")
"true (1)"
>>> cat("CCN(C)S(=O)(=O)Nc1ccc(F)c(C(=O)c2c[nH]c3ncc(-c4ccc(CN5CCN(CC(=O)N6CCC(c7ccc(NC8CCC(=O)NC8=O)cc7)CC6)CC5)cc4)cc23)c1F.O=C(O)C(F)(F)F (centres unmarked) [Example A21]")
"false (0)"

###

molecular target: BRAF^V600E protein (Homo sapiens, UniProt P15056, V600E); assay: HiBiT cellular BRAF V600E degradation assay; type: cell-based; details: A375.10 cells, 24 h incubation; Emax = amount of residual protein remaining in the cell after compound treatment; read-out: HiBit 24 h Emax
Emax listing for selected molecules.
recorded-endpoint: Emax (%)

>>> quantitative_readout("CCN(C)S(=O)(=O)Nc1ccc(F)c(C(=O)c2c[nH]c3ncc(-c4ccc(CN5CCN(C(=O)N6CCN(c7ccc(OC8CCC(=O)NC8=O)cc7)CC6)CC5)cc4)cc23)c1F (stereo not drawn)")
31
>>> quantitative_readout("CCN(C)S(=O)(=O)Nc1ccc(F)c(C(=O)c2c[nH]c3ncc(-c4cnc(N5CC6(C5)CC(O)(C5CCN(c7ccc(NC8CCC(=O)NC8=O)cc7F)CC5)C6)nc4)cc23)c1F (stereo not drawn)")
6.81
>>> quantitative_readout("CCN(C)S(=O)(=O)Nc1ccc(F)c(C(=O)c2c[nH]c3ncc(-c4cnc(N5CCC(CC(=O)N6CCC(c7ccc(N8CCC(=O)NC8=O)cc7)CC6)CC5)nc4)cc23)c1F")
33
>>> quantitative_readout("CCN(C)S(=O)(=O)Nc1cccc(C(=O)c2c[nH]c3ncc(-c4ccc(N5CCN(C(=O)CC6(O)CCN(c7ncc(NC8CCC(=O)NC8=O)cc7F)CC6)CC5)cc4)cc23)c1F (stereo not drawn)")
9.99
>>> quantitative_readout("O=C1CCC(Nc2ccc(C3CCN(CC(=O)N4[C@@H]5CCC[C@H]4CN(c4ccc(-c6cnc7[nH]cc(C(=O)c8c(F)ccc(NS(=O)(=O)N9CCCC9)c8F)c7c6)cn4)C5)CC3)cc2)C(=O)N1 (mixture of isomers)")
11
>>> quantitative_readout("O=C1CCC(Oc2ccc(C3CCN(C(=O)NC4CCN(Cc5ccc(-c6cnc7[nH]cc(C(=O)c8c(F)ccc(NS(=O)(=O)N9CCCC9)c8F)c7c6)cc5)CC4)CC3)cc2)C(=O)N1 (stereo not drawn)")
30

###

biological target: BRAF^V600E protein (Homo sapiens, UniProt P15056, V600E); experiment: HiBiT cellular BRAF V600E degradation assay; type: cell-based; settings: A375.10 cells (HiBiT tag knocked in at N-terminal of BRAF V600E), 24 h incubation; concentration at which 50% of total cellular BRAF V600E is degraded
recorded-endpoint: log10(DC50) (log10 of the value in nM)

>>> quantitative_readout("CCN(C)S(=O)(=O)Nc1ccc(F)c(C(=O)c2c[nH]c3ncc(-c4cc(F)c(N5CCN(C(=O)CN6CCC(c7ccc(NC8CCC(=O)NC8=O)cc7)CC6)CC5)c(F)c4)cc23)c1F (centres unmarked) [Example 93]")
1.38
>>> quantitative_readout("CCN(C)S(=O)(=O)Nc1ccc(F)c(C(=O)c2c[nH]c3ncc(-c4ccc(N5CCN(C(=O)CC6(O)CCN(c7ncc(NC8CCC(=O)NC8=O)cc7F)CC6)CC5)nc4)cc23)c1F (centres unmarked) [Example 80]")
0.47
>>> quantitative_readout("CN(C1CC1)S(=O)(=O)Nc1ccc(F)c(C(=O)c2c[nH]c3ncc(-c4ccc(N5CCN(C(=O)CC6(O)CCN(c7ccc(NC8CCC(=O)NC8=O)cc7F)CC6)CC5)nc4)cc23)c1F (centres unmarked) [Example 217]")
1.79
>>> quantitative_readout("CCN(C)S(=O)(=O)Nc1ccc(F)c(C(=O)c2c[nH]c3ncc(-c4cnc(N5CCN(C(=O)CN6CCC(c7ccc(NC89CC(C8)C(=O)NC9=O)cc7)CC6)CC5)nc4)cc23)c1F [Example A87, formic acid]")
0.78
>>> quantitative_readout("CCN(C)S(=O)(=O)Nc1ccc(F)c(C(=O)c2c[nH]c3ncc(-c4ccc(N5CCN(C(=O)CC6(O)CCN(c7ccc(NC8CCC(=O)NC8=O)cc7F)CC6)CC5)nc4)cc23)c1Cl (centres unmarked) [Example 170]")
0.66

###

biological target: BRAF^V600E protein (Homo sapiens, UniProt P15056, V600E); test: HiBiT cellular BRAF V600E degradation assay; assay type: cell-based; conditions: A375.10 cells, 24 h incubation; Emax = amount of residual protein remaining in the cell after compound treatment; read-out: HiBit 24 h Emax
recorded-endpoint: Emax (%)

>>> quantitative_readout("CCN(C)S(=O)(=O)Nc1ccc(F)c(C(=O)c2c[nH]c3ncc(-c4ccc(N5CC6(CN(C(=O)CN7CCN(c8ccc(NC9CCC(=O)NC9=O)cc8)CC7)C6)C5)nc4)cc23)c1F (stereo not drawn) [Example A77]")
31
>>> quantitative_readout("CCN(C)S(=O)(=O)Nc1ccc(Cl)c(C(=O)c2c[nH]c3ncc(-c4cnc(N5CCN(C(=O)CC6(O)CCN(c7ccc(NC8CCC(=O)NC8=O)cc7F)CC6)CC5)nc4)cc23)c1F (stereo not drawn) [Example 185]")
7.43
>>> quantitative_readout("CCN(C)S(=O)(=O)Nc1cccc(C(=O)c2c[nH]c3ncc(-c4cnc(N5CCN(C(=O)CC6(O)CCN(c7ccc(NC8CCC(=O)NC8=O)cc7F)C6)CC5)nc4)cc23)c1F (stereo not drawn) [Example 102]")
8.28

The reported measurements were obtained from patent US12559492B2.
